Entry source: patent US8987284B2

Test: Pharmacokinetic study in rat
Assay type: in vivo
Details: plasma, PO, 10 mg/Kg, read-out: AUC0-inf-obs
measure: AUC(0-inf) (ng·h/mL)

>>> df
                           molecular_string     measure  reported
0  CP1(=O)CCN(CC#Cc2ccc3ncnc(Nc4ccc(OCc5cccc(F)c5)c(Cl)c4)c3c2)CC1  AUC(0-inf)      9780

----------
Experiment: Pharmacokinetic study in dog
Assay type: in vivo, Beagle dogs
Design: unit not given here
Settings: beagle, plasma, IV, 2 mg/Kg
measure: clearance

>>> print(df.to_string())
                                   compound    measure  reported
0  CP1(=O)CCN(CC#Cc2ccc3ncnc(Nc4ccc(OCc5cccc(F)c5)c(Cl)c4)c3c2)CC1 [Example 4]  clearance      22.3
